# TARGET ENTITY: murine ASCT2 (Mus musculus, UniProt P51912)
# Construct: expressed in transfected cells; host or cells: Xenopus laevis oocytes (cRNA microinjection)
# Sequence (P51912 whole entry): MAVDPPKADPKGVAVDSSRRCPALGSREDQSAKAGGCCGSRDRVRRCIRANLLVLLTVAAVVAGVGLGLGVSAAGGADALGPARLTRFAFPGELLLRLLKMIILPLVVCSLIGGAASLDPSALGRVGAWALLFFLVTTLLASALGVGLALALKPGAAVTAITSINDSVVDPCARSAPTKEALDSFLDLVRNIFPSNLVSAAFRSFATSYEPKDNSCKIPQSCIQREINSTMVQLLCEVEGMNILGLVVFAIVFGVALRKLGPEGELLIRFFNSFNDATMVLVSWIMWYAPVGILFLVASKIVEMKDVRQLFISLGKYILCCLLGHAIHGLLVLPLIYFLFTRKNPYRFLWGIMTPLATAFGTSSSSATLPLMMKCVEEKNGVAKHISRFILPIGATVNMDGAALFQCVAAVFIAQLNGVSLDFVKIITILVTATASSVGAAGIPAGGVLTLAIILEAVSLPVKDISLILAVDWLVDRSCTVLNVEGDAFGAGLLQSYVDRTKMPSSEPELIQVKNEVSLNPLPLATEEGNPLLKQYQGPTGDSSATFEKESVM
# TEST: Inhibition of anion leak current, two-electrode voltage clamp in Xenopus oocytes expressing mouse ASCT2
# Format: cell-based
# EXPERIMENTAL SETUP: Xenopus oocytes expressing mouse ASCT2, held at −20 mV; * = actual Ki, others Ki estimates
ENDPOINT: Ki (µM)

As a guide, the following entries are already answered.
compound=O=C(O)[C@@H]1C[C@H](O)CN1 endpoint=Ki unit_abbreviation=µM data_value=872
compound="C[C@@]1(O)CN[C@H](C(=O)O)C1 [CSE96, cis-4-hydroxy-trans-4-methyl-L-proline]" endpoint=Ki unit_abbreviation=µM data_value=1080

a. C[C@@H]1CN[C@H](C(=O)O)[C@H]1O
b. CO[C@H]1CN[C@H](C(=O)O)[C@@H]1O
Request: From the items above, decide which of a and b has the lower Ki reading. I would appreciate it if you answered with the label of your choice.
Result: b

----------
# TARGET ENTITY: Human ASCT1 (Homo sapiens, UniProt P43007)
# Construct: expressed in transfected cells; host or cells: Xenopus laevis oocytes (cRNA microinjection)
# Sequence (P43007 whole entry): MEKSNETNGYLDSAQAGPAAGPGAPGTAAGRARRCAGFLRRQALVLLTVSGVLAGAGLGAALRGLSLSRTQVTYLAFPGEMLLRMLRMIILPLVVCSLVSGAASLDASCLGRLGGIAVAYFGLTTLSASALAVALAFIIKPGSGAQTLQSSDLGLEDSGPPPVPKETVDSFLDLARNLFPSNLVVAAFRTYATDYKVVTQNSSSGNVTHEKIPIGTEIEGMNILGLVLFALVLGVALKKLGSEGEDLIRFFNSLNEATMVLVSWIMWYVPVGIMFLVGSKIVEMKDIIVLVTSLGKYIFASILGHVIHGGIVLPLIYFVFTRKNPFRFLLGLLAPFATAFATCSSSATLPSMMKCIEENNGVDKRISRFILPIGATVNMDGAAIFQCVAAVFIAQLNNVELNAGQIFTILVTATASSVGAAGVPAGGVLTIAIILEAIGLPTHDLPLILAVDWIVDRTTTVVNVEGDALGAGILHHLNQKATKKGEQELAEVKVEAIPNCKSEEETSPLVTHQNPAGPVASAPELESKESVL
# TEST: Inhibition of anion leak current, two-electrode voltage clamp in Xenopus oocytes expressing human ASCT1
# Assay type: cell-based
# EXPERIMENTAL SETUP: Xenopus oocytes expressing human ASCT1, held at −20 mV; * = actual Ki, others Ki estimates; read-out: Ki (μM) ACST1
ENDPOINT: Ki (µM)

compound="O=C(O)[C@H]1NC[C@H](O)[C@H]1Oc1ccccc1 [CSE117, (2S,3S,4S)-3-phenoxy-4-hydroxy-proline]" unit_abbreviation=µM data_value=594
compound="O=C(O)[C@H]1NC[C@@H](OCc2cccc(Oc3ccccc3)c2)[C@@H]1O [CSE130]" unit_abbreviation=µM data_value=13
compound="O=C(O)[C@@H]1C[C@H](O)CN1 [CSE111]" unit_abbreviation=µM data_value=805

I. O=C(O)[C@H]1NC[C@@H](OCc2ccccc2)[C@@H]1O [CSE121]
II. O=C(O)[C@H]1NC[C@H](O)[C@H]1c1ccccc1 [CSE103, (2S,3S,4R)-3-phenyl-4-hydroxy-proline]
Request: // compare measured Ki between I and II ; output the lower one In your reply, give the label of the chosen option.
Result: I

----------
# TARGET ENTITY: murine ASCT2 (Mus musculus, UniProt P51912)
# Construct: expressed in transfected cells; host or cells: Xenopus laevis oocytes (cRNA microinjection)
# TEST: Inhibition of anion leak current, two-electrode voltage clamp in Xenopus oocytes expressing mouse ASCT2
# Assay type: cell-based
# EXPERIMENTAL SETUP: Xenopus oocytes expressing mouse ASCT2, held at −20 mV; * = actual Ki, others Ki estimates
ENDPOINT: Ki (µM)

smi=C[C@H]1[C@@H](C(=O)O)NC[C@@H]1O unit_abbreviation=µM data_value=922

A. O=C(O)[C@H]1NC[C@H](OCc2ccccc2)[C@H]1O
B. O=C(O)[C@H]1NC[C@@H](OCc2ccccc2)[C@@H]1O
Request: Two entries are listed, A and B . Which one carries the higher Ki? Field: selected label. Fill in the label of the entry you choose.
Result: A

----------
# TARGET ENTITY: murine ASCT2 (Mus musculus, UniProt P51912)
# Construct: expressed in transfected cells; host or cells: Xenopus laevis oocytes (cRNA microinjection)
# TEST: Inhibition of anion leak current, two-electrode voltage clamp in Xenopus oocytes expressing mouse ASCT2
# Assay type: cell-based
# EXPERIMENTAL SETUP: Xenopus oocytes expressing mouse ASCT2, held at −20 mV; * = actual Ki, others Ki estimates
ENDPOINT: Ki (µM)

Recorded results for 3 compounds are shown here.
compound=O=C(O)[C@H]1NC[C@@H](OCc2ccc(-c3ccccc3)cc2)[C@@H]1O target_entity="murine ASCT2 (Mus musculus, UniProt P51912)" data_value=0.24
compound=O=C(O)[C@H]1NC[C@@H](OCc2cccc(Oc3ccccc3)c2)[C@@H]1O target_entity="murine ASCT2 (Mus musculus, UniProt P51912)" data_value=10
compound="O=C(O)[C@H]1NC[C@H](O)[C@H]1c1ccccc1 [CSE103, (2S,3S,4R)-3-phenyl-4-hydroxy-proline]" target_entity="murine ASCT2 (Mus musculus, UniProt P51912)" data_value=1130

P. C[C@]1(O)CN[C@H](C(=O)O)C1 [CSE95, cis-4-methyl-trans-4-hydroxy-L-proline]
Q. CC(C)O[C@@H]1CN[C@H](C(=O)O)[C@H]1O
R. O=C(O)[C@H]1NC[C@H](O)[C@H]1Oc1ccccc1 [CSE117, (2S,3S,4S)-3-phenoxy-4-hydroxy-proline]
S. O=C(O)[C@H]1NC[C@@H](Oc2ccccc2)C1O (stereo in doubt) [CSE118, (2S,3S,4R)-3-hydroxy-4-phenoxy-proline]
Request: Form: Sort by [Ki] Order [ ascending ] Form entry: labels listed in requested order.
Result: S, Q, R, P
